experiment: Antioxidant activity assessed as inhibition of Fe3+/ascorbic acid-induced hydroxyl radical formation by measuring DMSO-induced formaldehyde production at 100 uM after 30 mins relative to control; format: functional
property.measured: inhibition

Examples with their reported inhibition follow.
compound	inhibition
N/C(=N\OS(=O)(=O)c1ccc([N+](=O)[O-])cc1)c1ccccn1	98%
N/C(=N\O)c1ccccn1	81%
Cc1c(C)c2c(c(C)c1O)CCC(C)(C(=O)O)O2 (stereo not given)	88%
Cc1ccc(S(=O)(=O)O/N=C(\N)c2ccncc2)cc1	32%
CCCS(=O)(=O)O/N=C(\N)c1cccnc1	63%

Name the recorded inhibition for `Cc1ccc(S(=O)(=O)O/N=C(\N)c2ccc([N+](=O)[O-])cc2)cc1` .
78%

Fill in: inhibition of `NC(=NOS(=O)(=O)c1ccc([N+](=O)[O-])cc1)c1ccncc1` is ___
0%

Can you share its inhibition? I mean this compound: `NC(=NO)c1ccncc1`
87%

Query: inhibition; subject: `CCCS(=O)(=O)O/N=C(\N)c1ccccn1`
83%
